test-system: NAD-dependent protein deacetylase sirtuin-3, mitochondrial (Homo sapiens) (UniProt Q9NTG7)
Sequence (Q9NTG7 whole entry): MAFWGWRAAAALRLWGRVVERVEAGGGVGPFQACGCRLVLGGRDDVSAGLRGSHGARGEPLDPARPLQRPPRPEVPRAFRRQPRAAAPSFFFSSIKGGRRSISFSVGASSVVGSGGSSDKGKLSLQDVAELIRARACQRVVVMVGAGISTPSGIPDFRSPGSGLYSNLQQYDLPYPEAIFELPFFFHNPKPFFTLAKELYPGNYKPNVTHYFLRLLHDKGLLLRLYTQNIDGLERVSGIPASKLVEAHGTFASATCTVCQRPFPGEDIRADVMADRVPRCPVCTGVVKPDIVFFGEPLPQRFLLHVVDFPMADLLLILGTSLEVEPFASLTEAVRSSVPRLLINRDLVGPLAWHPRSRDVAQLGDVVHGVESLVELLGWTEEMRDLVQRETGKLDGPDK
method-notes: Inhibition of SIRT3 (unknown origin) at 10 uM by Flour-de-Lys fluorescent biochemical assay
measurement-label: inhibition (%)

compound=CSc1ccc(CSc2cccc(C(=O)Nc3ccc(C#N)cc3)c2)cc1 measurement_label=inhibition numeric_result=0
compound="C[S+]([O-])c1ccc(NC(=O)c2cccc(SCc3ccc(Cl)cc3)c2)cc1 (stereo unspecified)" measurement_label=inhibition numeric_result=8
compound=N#Cc1ccc(NC(=O)c2cccc(S(=O)(=O)Cc3ccc(Cl)cc3)c2)cc1 measurement_label=inhibition numeric_result=0

(P) COc1ccc(CS(=O)(=O)c2cccc(C(=O)Nc3ccc(C#N)cc3)c2)cc1
(Q) N#Cc1ccc(NC(=O)c2cccc([S+]([O-])Cc3ccc(Cl)cc3)c2)cc1 (stereo unspecified)
Incoming: Kindly identify the item with the lower inhibition figure among these two: P and Q Refer to your chosen item by its label in the answer.
Outgoing: P

###

test-system: NAD-dependent protein deacetylase sirtuin-2 (Homo sapiens, UniProt Q8IXJ6)
method-notes: Inhibition of SIRT2 (unknown origin) by Flour-de-Lys fluorescent biochemical assay
condition-parameters: read-out: IC50
pIC50: −log10 of the molar value.
measurement-label: pIC50

molecule=N#Cc1ccc(NC(=O)c2cccc(S(=O)(=O)Cc3ccc(Cl)cc3)c2)cc1 numeric_result=5.33
molecule=COc1ccc(CS(=O)(=O)c2cccc(C(=O)Nc3ccc(C#N)cc3)c2)cc1 numeric_result=5.17
molecule="C[S+]([O-])c1ccc(NC(=O)c2cccc(SCc3ccc(Cl)cc3)c2)cc1 (stereo unspecified)" numeric_result=5.08
molecule=N#Cc1ccc(NC(=O)c2cccc(SCc3ccc(Cl)cc3)c2)cc1 numeric_result=5.54

(1) CSc1ccc(CSc2cccc(C(=O)Nc3ccc(C#N)cc3)c2)cc1
(2) N#Cc1ccc(NC(=O)c2cccc([S+]([O-])Cc3ccc(Cl)cc3)c2)cc1 (stereo unspecified)
Incoming: For the two items 1 and 2 , which reports the higher pIC50 value? # answer = label of selected item
Outgoing: 1

###

test-system: UniProtKB Q8IXJ6
Sequence (whole entry): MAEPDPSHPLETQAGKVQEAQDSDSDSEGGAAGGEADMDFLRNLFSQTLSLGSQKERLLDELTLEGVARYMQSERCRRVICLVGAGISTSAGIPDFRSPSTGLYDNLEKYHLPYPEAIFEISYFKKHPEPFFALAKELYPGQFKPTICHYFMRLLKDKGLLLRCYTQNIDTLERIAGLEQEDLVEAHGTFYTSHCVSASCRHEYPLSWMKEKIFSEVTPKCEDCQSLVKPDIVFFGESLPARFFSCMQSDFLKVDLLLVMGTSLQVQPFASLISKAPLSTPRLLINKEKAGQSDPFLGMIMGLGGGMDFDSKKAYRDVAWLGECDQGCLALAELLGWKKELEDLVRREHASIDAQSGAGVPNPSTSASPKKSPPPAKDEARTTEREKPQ
method-notes: Inhibition of SIRT2 (unknown origin) at 10 uM by Flour-de-Lys fluorescent biochemical assay
measurement-label: inhibition (%)

molecule="C[S+]([O-])c1ccc(NC(=O)c2cccc(SCc3ccc(Cl)cc3)c2)cc1 (stereo not given)" measurement_label=inhibition numeric_result=60
molecule=O=C(Nc1ccc(Cl)nn1)c1cccc(S(=O)(=O)Cc2ccc(Cl)cc2)c1 measurement_label=inhibition numeric_result=0
molecule="N#Cc1ccc(NC(=O)c2cccc([S+]([O-])Cc3ccc(Cl)cc3)c2)cc1 (stereo not given)" measurement_label=inhibition numeric_result=47
molecule="C[S+]([O-])c1ccc(NC(=O)c2cccc([S+]([O-])Cc3ccc(Cl)cc3)c2)cc1 (stereo not given)" measurement_label=inhibition numeric_result=24
molecule="CS(=O)(=O)c1ccc(NC(=O)c2cccc([S+]([O-])Cc3ccc(Cl)cc3)c2)cc1 (stereo not given)" measurement_label=inhibition numeric_result=18

(1) COc1ccc(C[S+]([O-])c2cccc(C(=O)Nc3ccc(C#N)cc3)c2)cc1 (stereo not given)
(2) O=C(Nc1ccc(Cl)cc1)c1cccc(S(=O)(=O)Cc2ccc(Cl)cc2)c1
(3) COc1ccc(CS(=O)(=O)c2cccc(C(=O)Nc3ccc(C#N)cc3)c2)cc1
(4) CSc1ccc(CSc2cccc(C(=O)Nc3ccc(C#N)cc3)c2)cc1
Incoming: Could you please sort these 4 entries by inhibition from high to low? Would you mind listing the labels in the order requested?
Outgoing: 4, 3, 1, 2

###

test-system: NAD-dependent protein deacetylase sirtuin-2 (Homo sapiens) (UniProt Q8IXJ6)
Sequence (whole entry): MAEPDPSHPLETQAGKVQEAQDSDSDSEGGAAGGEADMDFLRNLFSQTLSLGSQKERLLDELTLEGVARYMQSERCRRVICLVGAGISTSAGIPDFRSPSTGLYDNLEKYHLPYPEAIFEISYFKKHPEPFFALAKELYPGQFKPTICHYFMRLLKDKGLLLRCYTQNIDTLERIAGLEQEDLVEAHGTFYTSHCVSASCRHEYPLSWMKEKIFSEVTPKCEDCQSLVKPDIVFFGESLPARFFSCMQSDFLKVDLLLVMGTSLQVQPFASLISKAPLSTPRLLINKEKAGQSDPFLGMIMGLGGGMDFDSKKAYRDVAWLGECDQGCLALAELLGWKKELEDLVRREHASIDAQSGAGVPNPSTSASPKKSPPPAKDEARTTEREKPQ
method-notes: Inhibition of SIRT2 (unknown origin) at 10 uM by Flour-de-Lys fluorescent biochemical assay
measurement-label: inhibition (%)

Answered cases to consult:
cpd_smiles=O=C(Nc1ccc(Cl)cn1)c1cccc(S(=O)(=O)Cc2ccc(Cl)cc2)c1 test_system="NAD-dependent protein deacetylase sirtuin-2 (Homo sapiens) (UniProt Q8IXJ6)" value_unit=% numeric_result=2
cpd_smiles=CS(=O)(=O)c1ccc(NC(=O)c2cccc(S(=O)(=O)Cc3ccc(Cl)cc3)c2)cc1 test_system="NAD-dependent protein deacetylase sirtuin-2 (Homo sapiens) (UniProt Q8IXJ6)" value_unit=% numeric_result=17
cpd_smiles=N#Cc1ccc(NC(=O)c2cccc(SCc3ccc(Cl)cc3)c2)cc1 test_system="NAD-dependent protein deacetylase sirtuin-2 (Homo sapiens) (UniProt Q8IXJ6)" value_unit=% numeric_result=81

(1) CC(=O)c1ccc(NC(=O)c2cccc(S(=O)(=O)Cc3ccc(Cl)cc3)c2)cc1
(2) N#Cc1ccc(NC(=O)c2cccc(S(=O)(=O)Cc3ccc(Cl)cc3)c2)cc1
Incoming: 1 or 2 : whose inhibition is greater? # respond with the chosen item's label
Outgoing: 2

###

test-system: UniProt:Q96EB6
Sequence (Q96EB6 whole entry): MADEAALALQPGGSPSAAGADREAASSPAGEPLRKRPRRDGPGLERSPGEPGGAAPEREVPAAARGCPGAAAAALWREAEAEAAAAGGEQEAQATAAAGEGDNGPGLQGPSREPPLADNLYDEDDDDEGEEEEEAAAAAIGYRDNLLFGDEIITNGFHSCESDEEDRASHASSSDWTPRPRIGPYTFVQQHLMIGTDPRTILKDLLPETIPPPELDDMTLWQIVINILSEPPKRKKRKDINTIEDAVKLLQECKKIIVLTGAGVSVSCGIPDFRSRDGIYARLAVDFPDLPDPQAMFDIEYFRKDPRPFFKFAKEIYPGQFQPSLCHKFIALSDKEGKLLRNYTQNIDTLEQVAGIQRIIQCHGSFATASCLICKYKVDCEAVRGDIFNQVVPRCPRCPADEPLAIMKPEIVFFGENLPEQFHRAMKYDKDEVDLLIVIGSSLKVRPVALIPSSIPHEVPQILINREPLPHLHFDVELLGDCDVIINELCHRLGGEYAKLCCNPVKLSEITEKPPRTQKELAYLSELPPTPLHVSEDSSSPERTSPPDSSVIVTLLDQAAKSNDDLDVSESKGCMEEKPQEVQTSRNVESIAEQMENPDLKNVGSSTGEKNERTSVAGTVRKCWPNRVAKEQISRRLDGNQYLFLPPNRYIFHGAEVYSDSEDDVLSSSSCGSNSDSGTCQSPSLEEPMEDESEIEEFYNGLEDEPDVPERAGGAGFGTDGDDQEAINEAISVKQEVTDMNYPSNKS
method-notes: Inhibition of SIRT1 (unknown origin) at 10 uM by Flour-de-Lys fluorescent biochemical assay
measurement-label: inhibition (%)

compound=N#Cc1ccc(NC(=O)c2cccc(S(=O)(=O)Cc3ccc(Cl)cc3)c2)cc1 measurement_label=inhibition value_unit=% numeric_result=0
compound=N#Cc1ccc(NC(=O)c2cccc(SCc3ccc(Cl)cc3)c2)cc1 measurement_label=inhibition value_unit=% numeric_result=8
compound=CSc1ccc(CSc2cccc(C(=O)Nc3ccc(C#N)cc3)c2)cc1 measurement_label=inhibition value_unit=% numeric_result=3
compound="N#Cc1ccc(NC(=O)c2cccc([S+]([O-])Cc3ccc(Cl)cc3)c2)cc1 (stereo unspecified)" measurement_label=inhibition value_unit=% numeric_result=12

(A) COc1ccc(CS(=O)(=O)c2cccc(C(=O)Nc3ccc(C#N)cc3)c2)cc1
(B) C[S+]([O-])c1ccc(NC(=O)c2cccc(SCc3ccc(Cl)cc3)c2)cc1 (stereo unspecified)
Incoming: Could you kindly indicate whether A or B has the higher inhibition value? Refer to your chosen entry by its label in the reply.
Outgoing: B

// data source = ChEMBL document CHEMBL3580657
